# System: MCF7
# assay.remarks: Induction of apoptosis in human MCF7 cells assessed as late apoptotic cells at 15 uM after 72 hrs by AnnexinV-FITC staining based flow cytometry (reference value: 11.8 +/- 2.2 %)
# Type: functional
We begin with a simple list: items and their reported Activity.
// units = %; emit number, no label

In the examples that follow, each entry is paired with its recorded Activity.
chem.smiles | observation.type | endpoint.value
CCCCN1C(=O)[C@H]2Cc3c(n(CO)c4ccccc34)CN2C1=O | Activity | 15.2
CN1c2ccccc2C(=O)N2CCc3c([nH]c4ccccc34)[C@H]21 | Activity | 33.2
CCCCN1C(=O)[C@@H]2Cc3c(n(CO)c4ccccc34)CN2C1=O | Activity | 13.7

Query :: Query: Activity; subject: COc1cc2nc(N3CCCN(C)CC3)nc(NC3CCN(Cc4ccccc4)CC3)c2cc1OC
Result :: 14.3

Query :: Query: Activity; subject: Nc1nccc2c1ncn2[C@@H]1C=C(CO)[C@@H](O)[C@H]1O
Result :: 24.1

Query :: Query: Activity; subject: CN1CCN(C(=O)[C@H]2Cc3c([nH]c4ccccc34)[C@@H]3N(C)c4ccccc4C(=O)N23)CC1
Result :: 15.8

Query :: Query: Activity; subject: CCCCN1C(=O)[C@H]2Cc3c([nH]c4ccccc34)CN2C1=O
Result :: 12.1

Query :: Query: Activity; subject: Cc1ccc(-c2cn3c(n2)sc2ccccc23)cc1
Result :: 21

Query :: Query: Activity; subject: CCCCN1C(=O)[C@@H]2Cc3c([nH]c4ccccc34)CN2C1=O
Result :: 17.7
